Values were extracted from paper PMC4980415.

assayComment: in vivo
statedConditions: male, Sprague-Dawley, rat, plasma, oral
endpointLabel: concentration at 1 h (µg/mL)
# number only, unit µg/mL dropped from output

Q: Give the reported concentration at 1 h for this molecule. Cc1nc2n(c(=O)c1CCN1CCC(c3noc4cc(F)ccc34)CC1)CCCC2O (stereo not shown) [Paliperidone, paliperidone]
Result: 0.197

---

assayComment: Pharmacokinetics of ITI-214 in rats
Type: in vivo
statedConditions: rat, plasma, oral; 3 mg/kg, 2 h after drug administration; read-out: free plasma concentration
endpointLabel: concentration at 2 h (nM)
# number only, unit nM dropped from output

Q: Give the reported concentration at 2 h for this molecule. `CN1C(=O)c2c(nn(Cc3ccc(-c4cccc(F)n4)cc3)c2Nc2ccccc2)N2C1=N[C@@H]1CCC[C@@H]12`
Result: 0.12

---

assayComment: Pharmacokinetics of ITI-214 in rats
Format: in vivo
statedConditions: rat, brain, oral, 3 mg/kg; plasma levels associated with optimal effects on acquisition; read-out: brain free fraction estimated
endpointLabel: concentration at 2 h (nM)
# number only, unit nM dropped from output

Q: Give the reported concentration at 2 h for this compound. CN1C(=O)c2c(nn(Cc3ccc(-c4cccc(F)n4)cc3)c2Nc2ccccc2)N2C1=N[C@@H]1CCC[C@@H]12 [ITI-214]
Result: 0.12

---

assayComment: Pharmacokinetics of ITI-214 in rats
Assay type: in vivo
statedConditions: brain; rat, oral
endpointLabel: Tmax

Q: Give the reported Tmax for this molecule. `CN1C(=O)c2c(nn(Cc3ccc(-c4cccc(F)n4)cc3)c2Nc2ccccc2)N2C1=N[C@@H]1CCC[C@@H]12`
Result: ~1.5 h
